# System: RIVA
# assay_explanation: growth inhibition by drug alone (1 - RLU/untreated control) (fraction); higher = stronger inhibition
# condition_context: 100 nM; time (day): 3; 177Lu-lilotomab satetraxetan 0 ug/ml
growth inhibition by drug alone listing for selected compounds.

// worked examples, growth inhibition by drug alone included
{"compound": "CN[C@@H](C)C(=O)N[C@H]1CN(C(=O)CC(C)C)CC[C@H]2CC[C@@H](C(=O)NC(c3ccccc3)c3ccccc3)N2C1=O", "test_value": -0.168}
{"compound": "O=C1NC(=O)/C(=C\\c2cccc(C(F)(F)F)c2)S1", "test_value": -0.524}
{"compound": "CCc1ccc(CCOc2ccc(CC3SC(=O)NC3=O)cc2)nc1 (stereo not given)", "test_value": -0.391}
{"compound": "COc1cc2nc(N3CCCN(C)CC3)nc(NC3CCN(Cc4ccccc4)CC3)c2cc1OC", "test_value": 0.209}

Field: next compound
Field: growth inhibition by drug alone (RIVA). Entry: CCc1cncnc1N1CCN(Cc2nc3ccc(C(F)(F)F)cc3[nH]2)CC1
-0.0601
